All figures here come from patent US11395857B2.

Listed here: items and their measured tissue uptake at 120 h.
- measurement protocol: Biodistribution of 177Lu-labeled αMSH analogues in mice bearing B16F10 mouse melanoma
- Type: in vivo, C57BL/6J mice
- measurement setup: mouse, spleen, iv, total radioactivity; 120 h p.i., C57BL/6J mice, B16F10 melanoma; read-out: Biodistribution, Spleen

compound	tissue uptake at 120 h, %ID/g
CCCC[C@H](NC(=O)CN1CCC(NC(=O)CN2CCN(CC(=O)O)CCN(CC(=O)O)CCN(CC(=O)O)CC2)CC1)C(=O)N[C@H]1CC(=O)NCCCC[C@@H](C(N)=O)N(C)C(=O)[C@H](Cc2c[nH]c3ccccc23)NC(=O)[C@H](CCCNC(=N)N)N(C)C(=O)[C@@H](Cc2ccccc2)NC(=O)[C@H](Cc2c[nH]cn2)NC1=O [^177Lu-labeled CCZ01106, metal not drawn]	0.11
CCCC[C@H](NC(=O)CN1CCC(NC(=O)CN2CCN(CC(=O)O)CCN(CC(=O)O)CCN(CC(=O)O)CC2)CC1)C(=O)N[C@H]1CC(=O)NCCCC[C@@H](C(N)=O)N(C)C(=O)[C@H](Cc2c[nH]c3ccccc23)N(C)C(=O)[C@H](CCCNC(=N)N)N(C)C(=O)[C@@H](Cc2ccccc2)NC(=O)[C@H](Cc2c[nH]cn2)N(C)C1=O [^177Lu-labeled CCZ01099, metal not drawn]	0.07
CCCC[C@H](NC(=O)CN1CCC(NC(=O)[C@H](CCCCNC(=O)CN2CCN(CC(=O)O)CCN(CC(=O)O)CCN(CC(=O)O)CC2)NC(=O)[C@H](CCC(=O)O)NC(=O)CCCc2ccc(I)cc2)CC1)C(=O)N[C@H]1CC(=O)NCCCC[C@@H](C(N)=O)N(C)C(=O)[C@H](Cc2c[nH]c3ccccc23)NC(=O)[C@H](CCCNC(=N)N)N(C)C(=O)[C@@H](Cc2ccccc2)NC(=O)[C@H](Cc2c[nH]cn2)NC1=O [^177Lu-labeled CCZ01118, metal not drawn]	0.35
